molecular target: T1, recombinant human CTGF-Fc protein (Creative Biomart) (human); experiment: SPR (Biacore)
T1 construct: Bought; also called human CTGF with a human IgG1 Fc Tag
T1 sequence (chain, as listed by the source limits assumed): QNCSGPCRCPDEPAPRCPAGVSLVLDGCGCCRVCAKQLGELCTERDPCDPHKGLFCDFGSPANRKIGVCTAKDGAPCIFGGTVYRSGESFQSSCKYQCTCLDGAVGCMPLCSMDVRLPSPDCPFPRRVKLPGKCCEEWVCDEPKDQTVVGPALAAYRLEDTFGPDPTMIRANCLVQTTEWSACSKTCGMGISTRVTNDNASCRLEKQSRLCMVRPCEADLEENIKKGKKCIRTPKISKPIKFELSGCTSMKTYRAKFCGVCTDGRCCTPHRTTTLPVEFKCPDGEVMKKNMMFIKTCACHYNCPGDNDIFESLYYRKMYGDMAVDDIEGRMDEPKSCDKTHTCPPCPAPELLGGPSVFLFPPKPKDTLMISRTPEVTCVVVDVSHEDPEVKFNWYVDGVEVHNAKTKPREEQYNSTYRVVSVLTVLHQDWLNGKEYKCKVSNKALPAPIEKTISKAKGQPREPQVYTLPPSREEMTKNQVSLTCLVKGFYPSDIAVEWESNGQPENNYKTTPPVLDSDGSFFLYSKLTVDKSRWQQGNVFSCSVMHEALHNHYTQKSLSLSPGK
pKd: −log10 of the molar value.

{"Binder": "lipocalin mutein of SEQ ID NO: 18 (designed binder, also called hNGAL mutein; not shown: C-terminal His-tag) QDSTSDLIPAPPLSKVPLQQNFQDNQFQGKWYVVGIAGNAILRDDKYPAKMFATIYELKEDKSYDVTSVRFENKSCIYTIKTFVPGSQPGEFTHGNIKSHPGQTSTLVRVVSTNYNQHAMVFFKHVSQNREIFVITLYGRTKELTSELKENFIRFSKSLGLPENHIVFPVPIDQCIDG", "pKd": 10.13}
{"Binder": "lipocalin mutein of SEQ ID NO: 16 (designed binder, also called hNGAL mutein; not shown: C-terminal His-tag) QDSTSDLIPAPPLSKVPLQQNFQDNQFQGKWYVVGLAGNAILRTDKQPAKMFATIYELKEDKSYDVTSVRFEAKSCVYTIKTFVPGSQPGEFTAGNIKSAPGQTSTLVRVVSTNYNQHAMVFFKHVSQNREFFVITLYGRTKELTSELKENFIRFSKSLGLPENHIVFPVPIDQCIDG", "pKd": 9.12}
